Listing of entries alongside the reported Ki.
Molecular target: BCLXL (Homo sapiens, UniProt Q07817, V10N/V9A)
Sequence (Q07817 with tags, fused parts or gaps V9A/V10N): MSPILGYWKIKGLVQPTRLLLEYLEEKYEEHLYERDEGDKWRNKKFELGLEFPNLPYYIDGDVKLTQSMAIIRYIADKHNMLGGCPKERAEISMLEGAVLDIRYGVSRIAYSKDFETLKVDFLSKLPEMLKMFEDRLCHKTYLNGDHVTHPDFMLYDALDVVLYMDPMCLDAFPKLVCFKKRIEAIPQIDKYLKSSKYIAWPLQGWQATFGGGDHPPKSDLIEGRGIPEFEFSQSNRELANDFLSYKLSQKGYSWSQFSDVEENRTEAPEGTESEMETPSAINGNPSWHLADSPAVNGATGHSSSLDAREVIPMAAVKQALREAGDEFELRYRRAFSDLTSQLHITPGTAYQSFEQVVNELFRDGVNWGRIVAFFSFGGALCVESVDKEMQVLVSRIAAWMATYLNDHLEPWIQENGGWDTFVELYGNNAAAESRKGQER
Experiment: Fluorescence polarisation assay (PUMA-based probe displacement); further: 20 nM protein, 10 nM fluorescent probe

compound | measured_on | Ki
COCCCN(c1cc(C)c(Nc2nc3ccccc3s2)nn1)c1nc(C(=O)O)c(CCCOc2ccc(C#CCN(C)C)cc2F)s1 [Example 54] | BCLXL (Homo sapiens, UniProt Q07817, V10N/V9A) | 1.4 nM
Cc1cc(N(CCCC(O)CN(C)CCN(C)C)c2nc(C(=O)O)c(CCCOc3ccc(C#CCN(C)C)cc3F)s2)nnc1Nc1nc2ccccc2s1 (stereo not shown) [Example 124] | BCLXL (Homo sapiens, UniProt Q07817, V10N/V9A) | < 1 nM
O=C(O)c1csc(Nc2nnc(Nc3nc4ccccc4s3)c3c2CCC3)n1 [Example 23] | BCLXL (Homo sapiens, UniProt Q07817, V10N/V9A) | 40 nM
Cc1cc(N(CCCC(O)CN(C)CCN(C)C)c2nc(C(=O)O)cs2)nnc1Nc1nc2ccccc2s1 (stereo not shown) [Example 142] | BCLXL (Homo sapiens, UniProt Q07817, V10N/V9A) | 50 nM
Cc1cc(N(C)c2nc(C(=O)O)c(CCCOc3ccc(C#CCN(C)CCO)cc3F)s2)nnc1Nc1nc2ccccc2s1 [Example 76] | BCLXL (Homo sapiens, UniProt Q07817, V10N/V9A) | < 1 nM
Cc1cc(N(C)c2nc(C(=O)O)c(CC(O)COc3ccc(C#CCN(C)C)cc3F)s2)nnc1Nc1nc2ccccc2s1 (stereo not shown) [Example 164] | BCLXL (Homo sapiens, UniProt Q07817, V10N/V9A) | < 1 nM
CNCC(O)CCCN(c1cc(C)c(Nc2nc3ccccc3s2)nn1)c1nc(C(=O)O)c(CCCOc2ccc(C#CCN(C)C)cc2F)s1 (stereo not shown) [Example 150] | BCLXL (Homo sapiens, UniProt Q07817, V10N/V9A) | < 1 nM

###

Molecular target: BCLXL (Homo sapiens, UniProt Q07817, V10N/V9A)
Test: Fluorescence polarisation assay (PUMA-based probe displacement); further: 20 nM protein, 10 nM fluorescent probe
Experimental: Fluorescence polarization measures the rotation of a fluorescing species in solution, the larger the molecule the more polarized the fluorescence emission. [[…]] […] An 11-point serial dilution of each compound was prepared in DMSO, the final buffer conditions were 10 mM 4-(2-hydroxyethyl)-1-piperazineethanesulfonic acid [HEPES], 150 mM NaCl, 0.05% Tween 20, pH 7.4 and 5% DMSO. […] The KI values were determined from the IC50 values according to Cer et al, Nucleic Acids Res, 2009, Jul. […]
pKi: −log10 of the molar value.
Listing of entries alongside the reported pKi.

compound | comparison_sign | pKi
Cc1cc(N(C)c2nc(C(=O)O)c(C3CCN(CC(C)C)CC3)s2)nnc1Nc1nc2ccccc2s1 | = | 6.28
COCCCc1sc(Nc2nnc(Nc3nc4ccccc4s3)c(C)c2C)nc1C(=O)O | = | 7.57
Cc1cc(N(CCCCO)c2nc(C(=O)O)c(CCCOc3ccc(C#CCN(C)C)cc3F)s2)nnc1Nc1nc2ccccc2s1 | > | 9.00
COCCCC1(Cn2ncc(-c3sc(Nc4nnc(Nc5nc6ccccc6s5)c(C)c4C)nc3C(=O)O)c2C)CCCCCCC1 | = | 7.23
COCCCN(c1cc(C)c(Nc2nc3ccccc3s2)nn1)c1nc(C(=O)O)c(CCCOC2CCCCC2)s1 | = | 8.72
Cc1cc(N(CCC(O)CO)c2nc(C(=O)O)cs2)nnc1Nc1nc2ccccc2s1 (centres unmarked) | > | 9.00
Cc1c(Nc2nc3ccccc3s2)nnc(Nc2nc(C(=O)O)cs2)c1C1CC1 | = | 7.52
Cc1cc(N(C)c2nc(C(=O)O)c(C3CN(C)C3)s2)nnc1Nc1nc2ccccc2s1 | = | 5.92
